Each recorded value in this set is attributed to ChEMBL document CHEMBL4261596.

System: A-431
Test: Antiproliferative activity against human A431 cells
Type: functional, cell-based
measurement_name: IC50 (nM)
Note: unit nM is implicit; provide only the numeric part.

Query :: Quick one: IC50 of CC[C@@]1(OC(=O)OCCSSCCNC(=O)CCCC[C@@H]2SC[C@@H]3NC(=O)N[C@@H]32)C(=O)OCc2c1cc1n(c2=O)Cc2c-1nc1ccccc1c2/C=N/OC(C)(C)C ?
Result :: 9.2
